# assay-details: in vitro
# experimental-conditions: human
outcome-measure: CC50

input-smiles	recorded-value
CCOC(=O)C1=C[C@@H](OC(CC)CC)[C@H](NC(C)=O)[C@@H](N)C1	> 100 µM
NC(=O)c1nc(F)c[nH]c1=O	> 100 µM

---

Listed here are compounds together with their documented CC50.
# assay-details: Cytotoxicity in Huh7 cells (alamarBlue)
# Type: cell-based
# experimental-conditions: human, listed with HCoV-229E qPCR assay, MOI of 2

compound	CC50
CC(C)C(=O)OC[C@H]1O[C@@H](n2ccc(NO)nc2=O)[C@H](O)[C@@H]1O [Molnupiravir, reference compound]	> 100 µM
CC(C)(C)NC(=O)N[C@H](C(=O)N1C[C@H]2[C@@H]([C@H]1C(=O)NC(CC1CCC1)C(=O)C(N)=O)C2(C)C)C(C)(C)C (stereo partly drawn) [Boceprevir, reference compound]	> 100 µM
O=[N+]([O-])c1ccc(Nc2ccc(Cl)c(C(F)(F)F)c2)c2nonc12	34 µM
